Biological target: human IGF-I receptor on cells (NIH-3T3 fibroblasts expressing the human IGF-IR; DU145 cells) (human, UniProt P08069 31-1367)
Assay: cell-based or functional assay
Assay Metric: Antagonist Assay IC50 (nM), IGF-I-induced IGF-1R tyrosine phosphorylation (ELISA)

Recorded results for 2 binders are shown here.
*Q* Give reported Antagonist Assay IC50 (nM), IGF-I-induced IGF-1R tyrosine phosphorylation (ELISA) value for PINT-12A3 IgG (antibody, V domains shown) VH: QVQLVQSGAEVKKPGASVKVSCKASGYSFTNYGLNWVRQAPGQGLEWMGWISPYTGYTNYAQKFQGRVTMTSDKSTSTAYMDLRSLRSDDTAIYYCAREIFSHCSGGSCYPFDYWGQGTLVTVSS VL: LSSELTQDPAVSVALGQTVRITCQGDSLRSYYASWYQQKPGQAPLLVIYGRNNRPSGIPDRFSGSSSGNTASLTITGAQAEDEADYYCNSRDSSTNHGNWVFGGGTQLTVLS
*A* > 40 nM

*Q* Read the entry PINT-12A1 IgG (antibody, V domains shown, see recheck) VH: EVQLVQSGAEVKKPGASVKVSCKASGYSFTNYGLNWVRQAPGQGLEWMGWISPYTGYTNYAQKFQGRVTMTTDKSTSTAYMDLRSLRSDDTAVYYCAREIFSHCTGGSCYPFDSWGKGTLVTVSS VL: LSSELTQDPAVSVALGQTVRITCQGDSLRNYYASWYQQKPGQAPVLVLYSKNSRPSGVPDRFSGSSSGTTASLTISGAQAEDEADYYCNSRDTSGDLRWVFGGGTKLTVLG and write its reported Antagonist Assay IC50 (nM), IGF-I-induced IGF-1R tyrosine phosphorylation (ELISA).
*A* > 40 nM

Okay, next one:
*Q* Output Antagonist Assay IC50 (nM), IGF-I-induced IGF-1R tyrosine phosphorylation (ELISA) of PINT-12A4 IgG (antibody, V domains shown) VH: QVQLVQSGAEVKKPGASVKVSCKASGYSFTNYGLNWVRQAPGQGLEWMGWISPYTGYTNYAQKFQGRVTMTTDKSTSTAYMDLRSLRSDDTAVYYCAREIFSHCTGGSCYPFDSWGRGTMVTVSS VL: LSSELTQDPAVSVALGQTVRITCQGDSLRSYYASWYQQKPGQAPVLVIYGKNNRPSGIPDRFSGSSSGNTASLTITGAQAEDEADYYCNSRDSSGNLNWVFGGGTQLTVLS
*A* > 40 nM
